Tested on: N. gonorrhoeae WHO G
experimentSummary: Liquid broth MIC in Fastidious broth
Assay type: cell-based
conditionSummary: Neisseria gonorrhoeae; N. gonorrhoeae strain WHO G; Fastidious broth; read-out: Minimum Inhibitory Concentration, N. gonorrhoeae WHO G
readoutType: MIC

Past entries and their recorded results:
CCN1CCN(C(=O)NC(C(=O)N[C@H]2Cc3cccc(C(=O)O)c3OB2O)c2cc(F)c(C(=O)O)c(F)c2)C(=O)C1=O (stereo partly shown)
0.25 to 0.5 µg/mL
CCN1CCN(C(=O)NC(C(=O)N[C@H]2Cc3ccc(F)c(C(=O)O)c3OB2O)c2cc(F)c(O)c(O)c2Cl)C(=O)C1=O (stereo partly shown)
16 to 32 µg/mL
C[C@@H](O)[C@@H](NC(=O)N1CCN(CCNC(=O)c2c(F)cc(O)c(O)c2Cl)C(=O)C1=O)C(=O)N[C@H]1Cc2ccc(F)c(C(=O)O)c2OB1O
16 to 32 µg/mL

Now look at this one.
Request: Quick one: MIC for NCCN1CCN(C(=O)N[C@@H](C(=O)N[C@H]2Cc3ccc(F)c(C(=O)O)c3OB2O)c2c(F)cc(O)cc2F)C(=O)C1=O (single isomer, unassigned) ?
Result: 16 to 32 µg/mL

----------
Tested on: E. coli ATCC 25922
experimentSummary: Broth microdilution MIC in CAMHB
Type: cell-based
conditionSummary: Escherichia coli, ATCC25922; E. coli ATCC 25922; MHB; read-out: Minimum Inhibitory Concentration, E. coli 25922
readoutType: MIC

CCN1CCN(C(=O)NC(C(=O)N[C@H]2Cc3cccc(C(=O)O)c3OB2O)c2c(F)cc(O)cc2F)C(=O)C1=O (stereo partly drawn)
8 to 16 µg/mL
CCN1CCN(C(=O)NC(C(=O)N[C@H]2Cc3ccc(F)c(C(=O)O)c3OB2O)c2ncc(C(=O)O)cc2F)C(=O)C1=O (stereo partly drawn)
> 128 µg/mL

Now look at this one.
Request: Quick one: MIC for NCCN1CCN(C(=O)NC(C(=O)N[C@H]2Cc3cccc(C(=O)O)c3OB2O)c2c(F)cc(NS(N)(=O)=O)cc2F)C(=O)C1=O (stereo partly drawn) ?
Result: > 128 µg/mL

----------
Test system: E. coli AG100A
readoutType: MIC

Request: Quick one: MIC for CCN1CCN(C(=O)NC(C(=O)N[C@H]2Cc3cccc(C(=O)O)c3OB2O)c2cc(F)c(O)c(F)c2)C(=O)C1=O (stereo partly drawn) ?
Result: 2 to 4 mg/L

----------
Test system: N. gonorrhoeae WHO L
experimentSummary: Liquid broth MIC in Fastidious broth
Format: cell-based
conditionSummary: Neisseria gonorrhoeae; N. gonorrhoeae strain WHO L; Fastidious broth; read-out: Minimum Inhibitory Concentration, N. gonorrhoeae WHO L
Here, each record is paired with measured MIC data.

Past entries and their recorded results:
CCN1CCN(C(=O)N[C@@H](C(=O)N[C@H]2Cc3cccc(C(=O)O)c3OB2O)c2ccc(C(=O)O)cc2O)C(=O)C1=O (single isomer, unassigned) [Example 144]
4 to 8 µg/mL
CCN1CCN(C(=O)NC(C(=O)N[C@H]2Cc3cccc(C(=O)O)c3OB2O)c2ccc(O)c(N(S(C)(=O)=O)S(C)(=O)=O)c2)C(=O)C1=O (stereo partly drawn) [Example 21]
> 64 µg/mL

Request: Quick one: MIC for NS(=O)(=O)Nc1cccc(C(NC(=O)N2CCN(Cc3c(F)cc(O)c(O)c3Cl)C(=O)C2=O)C(=O)N[C@H]2Cc3cccc(C(=O)O)c3OB2O)c1 (stereo partly drawn) [Example 131] ?
Result: > 64 µg/mL

Request: Quick one: MIC for C[C@@H](O)[C@@H](NC(=O)N1CCN(CCNC(=O)c2c(F)cc(O)c(O)c2Cl)C(=O)C1=O)C(=O)N[C@H]1Cc2ccc(F)c(C(=O)O)c2OB1O [Example 102] ?
Result: > 64 µg/mL

Request: Quick one: MIC for NCCN1CCN(C(=O)NC(C(=O)N[C@H]2Cc3cccc(C(=O)O)c3OB2O)c2ccc(C(=O)O)c(Cl)c2)C(=O)C1=O (stereo partly drawn) [Example 153] ?
Result: > 64 µg/mL
